Origin of measurements: PubChem BioAssay AID1963963

- Tested on: 958667-338-R-J2-PDC tumor spheroids viability
- protocol: Anticancer human tumor 958667-338-R-J2-PDC patient-derived colon adenocarcinoma cell line growth inhibition [PI3K]
- assayContext: second compound 0.01 µM; first compound 0.0316 µM; stronger effect = lower value; spheroids with HUVEC and MSC
compounds and their reported viability, T/C
Express the result in % but write the number alone.

Past entries and their recorded results:
{"columns": ["compound", "testTarget", "viability, T/C, %"],
 "data": [
  ["Cn1ncc(Cl)c1-c1cc(C(=O)NC(CN)Cc2cccc(F)c2)sc1Cl (stereo not drawn) + CC(Nc1ccc2c(c1)OCCn1cc(N3C(=O)OCC3C(F)F)nc1-2)C(N)=O", "958667-338-R-J2-PDC tumor spheroids viability", 109],
  ["Cn1nccc1Nc1nccc(-c2ccn(C(CO)c3ccc(Cl)c(F)c3)c(=O)c2)n1 (stereo not drawn) + CC(Nc1ccc2c(c1)OCCn1cc(N3C(=O)OCC3C(F)F)nc1-2)C(N)=O", "958667-338-R-J2-PDC tumor spheroids viability", 108]
]}

Alright, here's another compound for you.
Assign viability, T/C to the following record: CC(C)NCC(C(=O)N1CCN(c2ncnc3c2C(C)CC3O)CC1)c1ccc(Cl)cc1 (stereo not drawn) + COc1c(OCCCN2CCOCC2)ccc2c3n(c(=NC(=O)c4cnc(N)nc4)nc12)CCN3
97.8

====

- Tested on: 958667-338-R-J2-PDC tumor spheroids viability
- protocol: Anticancer human tumor 958667-338-R-J2-PDC cell line growth inhibition [PI3K];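 further: spheroids exposed to compounds for seven days before readout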
- assayContext: second compound 3.16 µM; first compound 0.1 µM; stronger effect = lower value; spheroids with HUVEC and MSC
So basically every entry gets a class from its viability, T/C, ranges being LOW (below 80%), MEDIUM (80% to below 90%), HIGH (90% or more)

{"columns": ["compound", "testTarget", "assignedClass"],
 "data": [
  ["CC(=O)c1c(C)c2cnc(Nc3ccc(N4CCNCC4)cn3)nc2n(C2CCCC2)c1=O + CC(Nc1ncnc2nc[nH]c12)c1cc2cccc(Cl)c2c(=O)n1-c1ccccc1", "958667-338-R-J2-PDC tumor spheroids viability", "HIGH"],
  ["CC(C)n1nc(-c2ccc3oc(N)nc3c2)c2c(N)ncnc21 + Cc1nc(NC(=O)N2CCCC2C(N)=O)sc1-c1ccnc(C(C)(C)C(F)(F)F)c1", "958667-338-R-J2-PDC tumor spheroids viability", "LOW"],
  ["CNC(=O)c1ccc(N2C(=S)N(c3ccc(C#N)c(C(F)(F)F)c3)C(=O)C2(C)C)cc1F + Cc1nc(NC(=O)N2CCCC2C(N)=O)sc1-c1ccnc(C(C)(C)C(F)(F)F)c1", "958667-338-R-J2-PDC tumor spheroids viability", "LOW"],
  ["CCCS(=O)(=O)Nc1ccc(F)c(C(=O)c2c[nH]c3ncc(-c4ccc(Cl)cc4)cc23)c1F + Cc1nc(NC(=O)N2CCCC2C(N)=O)sc1-c1ccnc(C(C)(C)C(F)(F)F)c1", "958667-338-R-J2-PDC tumor spheroids viability", "LOW"],
  ["CNC(=O)c1ccc(N2C(=S)N(c3ccc(C#N)c(C(F)(F)F)c3)C(=O)C2(C)C)cc1F + CC(Nc1ncnc2nc[nH]c12)c1cc2cccc(Cl)c2c(=O)n1-c1ccccc1", "958667-338-R-J2-PDC tumor spheroids viability", "MEDIUM"]
]}

Looking at CC1(C)CCC(Nc2ncc(C(F)(F)F)c(-c3c[nH]c4c(P(C)(C)=O)c(C#N)ccc34)n2)CN1 (stereo unspecified) + CC(Nc1ncnc2nc[nH]c12)c1cc2cccc(Cl)c2c(=O)n1-c1ccccc1 , which class would you pick?
HIGH

Lab log: CC1(C)CCC(CN2CCN(c3ccc(C(=O)NS(=O)(=O)c4ccc(NCC5CCOCC5)c([N+](=O)[O-])c4)c(Oc4cnc5[nH]ccc5c4)c3)CC2)=C(c2ccc(Cl)cc2)C1 + Cc1nc(NC(=O)N2CCCC2C(N)=O)sc1-c1ccnc(C(C)(C)C(F)(F)F)c1 — assign viability, T/C category
LOW

For CC1(C)CCC(Nc2ncc(C(F)(F)F)c(-c3c[nH]c4c(P(C)(C)=O)c(C#N)ccc34)n2)CN1 (stereo unspecified) + Cc1nc(NC(=O)N2CCCC2C(N)=O)sc1-c1ccnc(C(C)(C)C(F)(F)F)c1 , which viability, T/C bin applies?
MEDIUM

====

- Test system: 958667-338-R-J2-PDC tumor spheroids viability
- protocol: Anticancer human tumor 958667-338-R-J2-PDC cell line growth inhibition [PI3K];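 further: spheroids exposed to compounds for seven days before readout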
- assayContext: curve of first compound; second compound 0.0316 µM; spheroids with HUVEC and MSC
- Excerpt: Combinatorial screen of targeted agents with the PI3K inhibitors inavolisib, alpelisib, duvelisib, and copanlisib in multi-cell type tumor spheroids A high-throughput screen of multi-cell type tumor spheroids was designed to identify active combinations of targeted small molecules and PI3K pathway inhibitors. […] Compounds. […] If the clinical Cmax for an agent had not been determined, the highest concentration tested was 10 microM. […]
Measured IC50, listed per entry.
Hi! Could you send only the number? It should be in µM, unit omitted.

{"columns": ["molecule", "IC50 / µM"],
 "data": [
  ["Cn1cnc2c(F)c(Nc3ccc(Br)cc3Cl)c(C(=O)NOCCO)cc21 + Cc1nc(NC(=O)N2CCCC2C(N)=O)sc1-c1ccnc(C(C)(C)C(F)(F)F)c1", 0.413],
  ["CC1(C)CCC(Nc2ncc(C(F)(F)F)c(-c3c[nH]c4c(P(C)(C)=O)c(C#N)ccc34)n2)CN1 (configuration not stated) + CC(Nc1ccc2c(c1)OCCn1cc(N3C(=O)OCC3C(F)F)nc1-2)C(N)=O", 2.55],
  ["Cn1cnc2c(F)c(Nc3ccc(Br)cc3Cl)c(C(=O)NOCCO)cc21 + CC(Nc1ncnc2nc[nH]c12)c1cc2cccc(Cl)c2c(=O)n1-c1ccccc1", 0.365]
]}

Give the reported IC50 for this molecule. Cn1ncc(Cl)c1-c1cc(C(=O)NC(CN)Cc2cccc(F)c2)sc1Cl (configuration not stated) + Cc1nc(NC(=O)N2CCCC2C(N)=O)sc1-c1ccnc(C(C)(C)C(F)(F)F)c1
2.45

Give the reported value of IC50 for this record: CC(C)n1nc(-c2ccc3oc(N)nc3c2)c2c(N)ncnc21 + CC(Nc1ncnc2nc[nH]c12)c1cc2cccc(Cl)c2c(=O)n1-c1ccccc1
0.0749

Quote IC50 reported for CC1(C)CCC(Nc2ncc(C(F)(F)F)c(-c3c[nH]c4c(P(C)(C)=O)c(C#N)ccc34)n2)CN1 (configuration not stated) + Cc1nc(NC(=O)N2CCCC2C(N)=O)sc1-c1ccnc(C(C)(C)C(F)(F)F)c1 please.
6.39

Annotate the molecule CC1(C)CCC(Nc2ncc(C(F)(F)F)c(-c3c[nH]c4c(P(C)(C)=O)c(C#N)ccc34)n2)CN1 (configuration not stated) + COc1c(OCCCN2CCOCC2)ccc2c3n(c(=NC(=O)c4cnc(N)nc4)nc12)CCN3 with its measured IC50.
3.72

Note IC50 for the molecule shown: Cn1ncc(Cl)c1-c1cc(C(=O)NC(CN)Cc2cccc(F)c2)sc1Cl (configuration not stated) + COc1c(OCCCN2CCOCC2)ccc2c3n(c(=NC(=O)c4cnc(N)nc4)nc12)CCN3
1.7

Return the recorded IC50 value; entry: CCCS(=O)(=O)Nc1ccc(F)c(C(=O)c2c[nH]c3ncc(-c4ccc(Cl)cc4)cc23)c1F + CC(Nc1ncnc2nc[nH]c12)c1cc2cccc(Cl)c2c(=O)n1-c1ccccc1
7.99

Fill in reported IC50 for this entry: CC1(C)CCC(CN2CCN(c3ccc(C(=O)NS(=O)(=O)c4ccc(NCC5CCOCC5)c([N+](=O)[O-])c4)c(Oc4cnc5[nH]ccc5c4)c3)CC2)=C(c2ccc(Cl)cc2)C1 + CC(Nc1ccc2c(c1)OCCn1cc(N3C(=O)OCC3C(F)F)nc1-2)C(N)=O
7.32

Consider the molecule CC1(C)CCC(Nc2ncc(C(F)(F)F)c(-c3c[nH]c4c(P(C)(C)=O)c(C#N)ccc34)n2)CN1 (configuration not stated) + CC(Nc1ncnc2nc[nH]c12)c1cc2cccc(Cl)c2c(=O)n1-c1ccccc1 and give its recorded IC50.
4.48

Input Cn1nccc1Nc1nccc(-c2ccn(C(CO)c3ccc(Cl)c(F)c3)c(=O)c2)n1 (configuration not stated) + COc1c(OCCCN2CCOCC2)ccc2c3n(c(=NC(=O)c4cnc(N)nc4)nc12)CCN3 , output reported IC50.
2.72

====

- System: 958667-338-R-J2-PDC tumor spheroids viability
- protocol: Anticancer human tumor 958667-338-R-J2-PDC cell line growth inhibition [PI3K];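 further: spheroids exposed to compounds for seven days before readout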
- assayContext: second compound 1 µM; first compound 0.0316 µM; stronger effect = lower value; spheroids with HUVEC and MSC
Threshold-based label: viability, T/C under 60% gives Yes, viability, T/C not under 60% gives No.

{"columns": ["compound", "testTarget", "assignedClass"],
 "data": [
  ["Cn1nccc1Nc1nccc(-c2ccn(C(CO)c3ccc(Cl)c(F)c3)c(=O)c2)n1 (stereo not given) + CC(Nc1ncnc2nc[nH]c12)c1cc2cccc(Cl)c2c(=O)n1-c1ccccc1", "958667-338-R-J2-PDC tumor spheroids viability", "No"]
]}

Determine whether this compound shows viability, T/C lower than 60% (ties excluded): CCCS(=O)(=O)Nc1ccc(F)c(C(=O)c2c[nH]c3ncc(-c4ccc(Cl)cc4)cc23)c1F + COc1c(OCCCN2CCOCC2)ccc2c3n(c(=NC(=O)c4cnc(N)nc4)nc12)CCN3
Yes

# TODO verify viability, T/C < 60% strictly for this compound: CC(Cn1ccc(-c2ccc(C#N)c(Cl)c2)n1)NC(=O)c1cc(C(C)O)[nH]n1 (stereo not given) + Cc1nc(NC(=O)N2CCCC2C(N)=O)sc1-c1ccnc(C(C)(C)C(F)(F)F)c1
No

Please check: viability, T/C for CCN1CCN(Cc2ccc(Nc3ncc(F)c(-c4cc(F)c5nc(C)n(C(C)C)c5c4)n3)nc2)CC1 + COc1c(OCCCN2CCOCC2)ccc2c3n(c(=NC(=O)c4cnc(N)nc4)nc12)CCN3 , strictly under 60% or not?
Yes

I'd appreciate it if you could check whether CCCS(=O)(=O)Nc1ccc(F)c(C(=O)c2c[nH]c3ncc(-c4ccc(Cl)cc4)cc23)c1F + Cc1nc(NC(=O)N2CCCC2C(N)=O)sc1-c1ccnc(C(C)(C)C(F)(F)F)c1 has viability, T/C smaller than 60%.
No
